Test system: cocklebur (Xanthium strumarium)
Test: Test B pre-/postemergence plant response
Format: in vivo
Conditions: Postemergence, 125 g ai/ha; scale 0 to 100 (0 no effect, 100 complete control)
Exercise: for every item that follows, state its recorded Plant response rating, Cocklebur.
Keep it simple and answer with nothing but the number.

Exam item: What does the data say about its Plant response rating, Cocklebur? Entry: O=C1CCCC(O)=C1C(=O)c1cnc(-c2ccccc2)n(C2CCCC2)c1=O
Marked response: 100

Exam item: Looking for the measured Plant response rating, Cocklebur of CCCn1c(-c2cccc(C(F)(F)F)c2)ncc(C(=O)C2=C(O)CCCC2=O)c1=O , can you help?
Marked response: 98

Exam item: Which value of Plant response rating, Cocklebur has been reported for CCCn1c(-c2ccsc2)ncc(C(=O)C2=C(O)C3CCC(C3)C2=O)c1=O (centres unmarked) in the records?
Marked response: 95

Exam item: Can you share its Plant response rating, Cocklebur? I mean this compound: CCCn1c(-c2cc(F)cc(F)c2)ncc(C(=O)C2=C(O)CCCC2=O)c1=O
Marked response: 98

Exam item: What Plant response rating, Cocklebur value was documented for this compound, COCCn1c(-c2cc(F)cc(F)c2)ncc(C(=O)C2=C(O)CCCC2=O)c1=O ?
Marked response: 80

Exam item: Param item = CCCn1c(-c2cccc(Cl)c2)ncc(C(=O)C2=C(O)CCCC2=O)c1=O ; retrieve measured Plant response rating, Cocklebur.
Marked response: 95

Exam item: # query: Plant response rating, Cocklebur of entry COCCn1c(-c2cccc(C)c2)ncc(C(=O)C2=C(O)C3CCC(C3)C2=O)c1=O (centres unmarked)
Marked response: 100

Exam item: Please report the recorded Plant response rating, Cocklebur for O=C1CCCC(O)=C1C(=O)c1cnc(-c2ccccc2)n(C2CCSCC2)c1=O .
Marked response: 100

Exam item: Dear colleague, I am looking for the recorded Plant response rating, Cocklebur of the following compound: CCCn1c(-c2cccc(Br)c2)ncc(C(=O)C2=C(O)CCCC2=O)c1=O
Marked response: 95

Exam item: Which Plant response rating, Cocklebur value belongs to O=C(C1=C(O)C2CCC(C2)C1=O)c1cnc(-c2ccsc2)n(CC2CCCO2)c1=O (centres unmarked) ?
Marked response: 100

Exam item: Which Plant response rating, Cocklebur value belongs to COCC(C)n1c(-c2ccccc2)ncc(C(=O)C2=C(O)CCCC2=O)c1=O (centres unmarked) ?
Marked response: 100
